Would you mind telling me the reported protein stability index of each entry?
B1: GLTSCR2 (parent)
chain: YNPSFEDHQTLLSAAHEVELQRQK

# Variants of: B1
# Protocol description: protein stability index of a GFP-peptide fusion (GPS, HEK-293T) (PSI 1-6); higher = more stable;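 note: lentivirally expressed fusions sorted by FACS into six bins by GFP to DsRed ratio, PSI derived from sequencing read proportions per bin multiplied by bin number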
# Conditions: c terminus: a fixed tail appended
Hey, just send me the number, nothing else.

Name the reported protein stability index value associated with the variant A15C
3.3

Also need D7S , thanks.
4.11

// same read-out, input: E6G
3.42

Repeat for the following variant: L12C
4.02

Same question, K24S this time
3.97

Again, but for E6C
3.25

# iterate: R22W
2.71

Check Q23T too.
3.68

Now try D7F .
2.81

Can you check A15G next?
4.28

Same thing, different variant: E6P
3.76

Repeat with H16S
4.45

Can you handle H16V next?
2.97

What do you have for N2S ?
3.91

Another variant to look at: S13Q
3.66

What do you get for Y1M ?
4.96

And then S4H , what is it?
4.26

Next variant: A14V
3.41

Also, R22L please.
3.18

Another: H16Y
3.34

Similarly, P3C ?
3.37

And then Q9I , what is it?
2.6

Proceed to S13G
3.29

Follow-up entry: N2A
2.13

Now consider S13I .
2.45

Input Q21Y
3.18

Thanks! And T10G ?
3.87

What would you report for L12D ?
5.35

Repeat with L12P
5.16

Request: F5R
3.96

How about this variant: L11E
5.13

Request: V18D
4.13

Field entry: Q23A
3.75

Cool, now F5N
4.43

Follow-up item: K24F
2.66

Cool, now Q21H
2.96

Moving on to the next variant: R22D
4.84

Another variant to look at: A14E
4.63

Next up: S13N
3.66

What about this variant? D7G
4.17

Now the variant A14M
3.62

Further, for V18S ?
3.65

Next entry: P3Q
5.13

Next entry: L20K
4.44

What do you get for H16W ?
2.51

Could you do the same for V18G , please?
3.79

Let us now turn to L12M
4.29

Then S4G ?
3.88

Record: E19T
3.5

Here is the next variant: F5T
4.28

And T10F ?
2.61

Now consider V18W and answer again.
2.54

Similarly, V18E ?
4.44

Here is the next variant: V18I
3.67

Field entry: P3G
4.35

Next up: L11Y
3.25

Same thing, different variant: Y1F
3.65

Could you do the same for A15F , please?
2.47

Next variant up: L12V
4.15
